- Test system: Rattus norvegicus
- PROTOCOL_NOTES: Hypoglycemic activity in 48 hrs-fasted rat assessed as change in blood glucose level at dose equivalent to 102 mg of free base/kg, po measured at 5 hrs relative to control
- Type: functional
Some molecules, each annotated with its measured Activity.
Just the number in %, nothing appended.

Solved entries (count: 4):
mol=O.[Cl-].c1csc(-c2c[n+]3ccccc3s2)c1 unit_label=% numeric_value=0
mol=CC(C)Oc1cccc(-c2c[n+]3ccccc3s2)c1.[O-][Cl+3]([O-])([O-])[O-] unit_label=% numeric_value=-10
mol=O.[Cl-].c1ccc(-c2ccc(-c3c[n+]4ccccc4s3)cc2)cc1 unit_label=% numeric_value=3
mol=O.[O-][Cl+3]([O-])([O-])[O-].c1ccc(-c2csc3cccc[n+]23)cc1 unit_label=% numeric_value=-19

Switching to the query record.
Give its Activity value. Item: O=S(=O)([O-])c1ccc(-c2ccc(-c3c[n+]4ccccc4s3)cc2)cc1 4
